System: MS2 coat protein
Test summary: apparent KD of MS2 coat protein, switch OFF state (with FMN for OFF switches, without FMN for ON switches); designed switch direction (-1 OFF switch, 1 ON switch): 1; higher = weaker reporter binding
Protocol conditions: FMN input: 0 or 200 uM; Eterna round: R93 (includes R88 designs)
# apparent KD of MS2 coat protein listing for each entry below
State just the number; it will be interpreted in µM.

Please review the following examples before continuing.
- GGGAGACAUGAGGAUCACCCAUGUGAAAACGUGCGAGGAUAUGAAUGGAAACCAUACUGUUCAGAAGGCGUUUGUC [Titus Petronius Secundus]: 0.0692
- AAAAAAAAAUCUCAGGAUAUAGAUUAUAGAACAUGAGGAUCACCCAUGUAGUGAAAGAAGAAAAACUAGAAGGGAGGAAAAAAAAA [Same State 2 #2]: 0.0708
- UCAGUGCCGACGAAGGAUAUAGCGGGUGAGACAUGAGGAUCACCCAUGUAUGCAGAACUCAUCCUCUAGAAGGUUGAGACGGCAA [Onaaror]: 0.0843
- AAAAAACAUGAGGAUCACCCAUGUGAAAAUAUGGGAGGAUAUACAAAGACGAGAGUCAAAGUAGAAGGCCUAAAAA [Mat - Same State 1 - Eli mod - D87]: 0.139
- AGAAAUAAAAGGCAGGAUAUCCAAAAGAAAACAUGAGGAUCACCCAUGUAAAAGAAAAUAAAGUGGGAGAAGGGCCAAAAUAAAG [My design (73%) + Space bases]: 0.0365

[ask] Given the sequence UUACAACAUGAGGAUCACCCAUGUAAACCCGACUAAGGAUAUGGAGUGAAAGAUAUCAUCCCAGAAGGUAGAAAUA [Istegeisis] , what is its reported apparent KD of MS2 coat protein?
[reply] 0.0533

====

System: MS2 coat protein
Test summary: apparent KD of MS2 coat protein; designed switch direction (-1 OFF switch, 1 ON switch): -1; higher = weaker reporter binding
Protocol conditions: input ligand: none
# apparent KD of MS2 coat protein listing for each entry below
State just the number; it will be interpreted in nM.

Please review the following examples before continuing.
- GAGUGCUAAGGAUAUACAUGAGGAUCACCCAUGUGCUUCAGCUAGGAGACUAGCAUUGGUAGAAGGUAGUACUC [Mod of lroppy 2 - Jieux - Exclusion 3] (Eterna round: R97, puzzle: Exclusion 3): 14.7
- GGUACUAUCACCUGAGUGGUAGUGCAACAAGCUUGUGAUACAUGAGGAUCACCCAUGUCCUCAUUUGCUCGUCUUAU [JL-sv3-2.25 JL mod] (Eterna round: R96, puzzle: Sensor v3, turn-off variant 2): 245
- CAACAUGAGGAUCACCCAUGUGGCCCUACGUGCUGGCUCGGGCAGGAUAUUAACCAAUGAGUAGUUAAGAAGGGCUCGCAAGUA [Eternabot solution 14] (Eterna round: R96, puzzle: Exclusion NG 3): 76.6
- ACAAGCAGAGAGUAAAUGGACAUGAGGAUCACCCAUGUGAGUCCAAGGAGAUAAGAUAUUAAAAAGGCUCGUCUUAU [AK-miRNA-r3-19] (Eterna round: R97, puzzle: Sensor, turn-off variant 1): 98.3
- UUUUGGCAUGUAGGAUAUGGGUCCGAUUGGGAUUUAGAAGGACAUGAGGAUCACCCAUGUGCCCUUACUUGGUGUUUUUUUUUU [EXclNG1-LROPPY20] (Eterna round: R96, puzzle: Exclusion NG 1): 91.6
- AGCCACAGAGGAUAUACAUACAUCCAGUAGCAGAUAUUGCUACAUGAGGAUCACCCAUGUAGAAGGCUGUGGCA [Omei Ex2 BD B21] (Eterna round: R97, puzzle: Exclusion 2): 1040
- CUGUAAAGGAAGGAUAUGCUAGACGAAAGUCUAGCAGAAGGUCCUACAUGAGGAUCACCCAUGUGGCCUCACAG [Mat - Exclusion 6 - Eli Mod - D50] (Eterna round: R97, puzzle: Exclusion 6): 274
- UGCUGACGAGGAUAUACAUGAGGAUCACCCAUGUUGGUUCAGCGACUUCGGUCGCAAUGUAGAAGGCGUCAGCA [E3/9-A5] (Eterna round: R97, puzzle: Exclusion 3): 523

Read the next record carefully.
[ask] Given the sequence ACAUGAGGAUCACCCAUGUCCGUCUGGUCUGUCUCGGCUGUCGAGGAUAUAGCUCGGUAUCCGCGCUAGAAGGCGGGAGCCGGU [Aenatbe mod 92] (Eterna round: R96, puzzle: Exclusion NG 3) , what is its reported apparent KD of MS2 coat protein?
[reply] 35
